Kindly state GI50 for each of the entries shown.
- System: UO-31 renal
- TEST PROTOCOL: NCI tumour cell line growth inhibition, 48 h

Worked cases, answers included:
| MOLECULAR STRING | GI50 |
| --- | --- |
| CC(C)c1cc(C(=O)[O-])c(O)c(C(C)C)c1.CC(C)c1cc(C(=O)[O-])c(O)c(C(C)C)c1.CC(C)c1cc(C(=O)[O-])c(O)c(C(C)C)c1.CC(C)c1cc(C(=O)[O-])c(O)c(C(C)C)c1.CC(C)c1cc(C(=O)[O-])c(O)c(C(C)C)c1.CC(C)c1cc(C(=O)[O-])c(O)c(C(C)C)c1.[Cu+2].[Mn+2].[Mn+2] | 16500 nM |
| O=c1c(-c2nc3ccccc3[nH]2)cc2ccccc2n1Cc1cn(Cc2ccccc2Cl)nn1 | 1330 nM |
| C[C@@]1(O)CCC[C@H]1n1c(=O)c(C(F)F)cc2cnc(NC3CCN(S(C)(=O)=O)CC3)nc21 | 1200 nM |
| O=C(N[C@@H](Cc1ccccc1)B(O)O)[C@H](Cc1cccc2ccccc12)NC(=O)N1CCOCC1 | 123 nM |
| O=C1c2ccccc2-c2c1c1ccc([N+](=O)[O-])cc1c(=O)n2CCCn1ccnc1 | 724 nM |

// next entry
query: What does the record list as GI50 for COCC(=O)NC/C=C/c1ccc2ncnc(Nc3ccc(Oc4ccc(C)nc4)c(C)c3)c2c1 ?
result: 7800 nM

---

- Tested on: U251 CNS
Hi there, use one of these labels in your reply, thanks! TRUE (active), FALSE (inactive)

Take a look at these entries with their results.
| MOLECULAR STRING | MEASURED ON | CLASS NAME |
| --- | --- | --- |
| O=c1c(-c2nc3ccccc3[nH]2)cc2ccccc2n1Cc1cn(Cc2ccccc2Cl)nn1 | U251 CNS | FALSE |
| Cc1nc2ccccc2c(/C=C/c2ccccc2)c1C(=O)/C=C/c1ccccc1 | U251 CNS | FALSE |
| COC(=O)CCCNC(=O)C(=O)c1c(O)c(O)c(C(C)C)c2cc(C)c(-c3c(C)cc4c(C(C)C)c(O)c(O)c(C(=O)C(=O)NCCCC(=O)OC)c4c3O)c(O)c12 | U251 CNS | TRUE |

query: Can you look up the reported call for CN1CCN(Cc2ccc(NC(=O)c3cccc(C#Cc4c(N)ncc5ccc(F)cc45)c3)cc2C(F)(F)F)CC1 for me?
result: FALSE

---

- System: BT-549 breast
- TEST PROTOCOL: NCI tumour cell line growth inhibition, 48 h; in the data active means GI50 below about 0.43 µM; inactive means the rest
Hi there, use one of these labels in your reply, thanks! active, inactive

| COMPOUND | CLASS NAME |
| --- | --- |
| O=C(Nc1ccc(N2CCNCC2)cn1)c1[nH]ncc1Nc1ncnc2sccc12 | inactive |

query: Can you look up the reported call for CCCc1n(Cc2ccc3ccccc3n2)cc[n+]1Cc1ccc2ccccc2c1 for me?
result: active

---

- System: SK-MEL-5 melanoma
- TEST PROTOCOL: NCI tumour cell line growth inhibition, 48 h
Kindly state TGI for each of the entries shown.
Answers are plain numbers, in µM.

Return reported TGI values for all items listed beneath this line.
1. CCCCCCCCCC[N+](C)(C)C
2. C=C(C1=CC(=O)C(C)(C)O1)[C@@H]1CC=C([C@@H]2CC[C@H]3[C@@]2(C)CC[C@H]2C(C)(C)C(=O)[C@H](OC(=O)CC(C)(O)CC(=O)O)C[C@]32C)[C@H](O)O1 (stereo not given in full)
3. Cc1cc(C)c(O)c(CNCCCNCc2cc(C)cc(C)c2O)c1
4. C[C@]12CC/C(=N\O)C=C1CC[C@@H]1[C@@H]2CC[C@]2(C)C(=N/O)/C(=C/c3ccncc3)C[C@@H]12
5. O=C(Nc1ccc(N2CCNCC2)cn1)c1[nH]ncc1Nc1ncnc2sccc12

result:
1. 3.26
2. 24.4
3. 2.93
4. 23
5. 3.26

---

- Tested on: DLD-1 colon
- TEST PROTOCOL: NCI tumour cell line growth inhibition, 48 h
MEASURED ATTRIBUTE: TGI (µM)
Answers are plain numbers, in µM.

Worked cases, answers included:
| COMPOUND | MEASURED ATTRIBUTE | DATA VALUE |
| --- | --- | --- |
| CC(C)=CCC/C(C)=C/CC/C(C)=C/C1CCC(=O)C1(C)C (configuration not stated) | TGI | 32.6 |
| C/C(=N\NS(=O)(=O)c1c(C)cc(C)cc1C)c1ccc[n+]([O-])n1 | TGI | 21 |

Return reported TGI values for all items listed beneath this line.
1. CC(C)Cc1ccc(C(C)/C=C2\CCC(CN3CCCCC3)C2=O)cc1 (configuration not stated)
2. CCCCCCC/C=C1\CCC(CN(C)C)C1=O (configuration not stated)
3. CCCCC(N)CSSCC(N)CCCC (configuration not stated)

result:
5.13
20.9
60.3

Return reported TGI values for all items listed beneath this line.
1. COc1ccc(/C=C2\CCc3ccccc3C2=O)cc1OC
2. COc1c(Cl)[c]([Hg][O]C(C)=O)c(NCC(C)=O)c(OC)[c]1[Hg][O]C(C)=O
3. Cc1nc(-n2nc(-c3ccccc3)cc2-c2ccccc2)sc1C(=O)/C=C/c1ccc(Cl)cc1
4. CCN(CC)CCC(=O)N1C/C(=C/c2ccccc2)C(=O)/C(=C\c2ccccc2)C1

result:
1: 56.4; 2: 26.8; 3: 26.8; 4: 2.82

---

Kindly state TGI for each of the entries shown.
- System: HS 578T breast
- TEST PROTOCOL: NCI tumour cell line growth inhibition, 48 h
Numbers only, in µM.

Worked cases, answers included:
| COMPOUND | MEASURED ON | UNIT STRING | TGI |
| --- | --- | --- | --- |
| COc1ccc(Br)c(C=Nc2cccc3cc(OC)c(OC)cc23)c1 | HS 578T breast | µM | 57.1 |
| CCN(CC)CCC(=O)N1C/C(=C/c2ccccc2)C(=O)/C(=C\c2ccccc2)C1 | HS 578T breast | µM | 2.21 |
| CCOc1cc(/C=C2\N=C(c3ccccc3)N(c3nc4ccccc4s3)C2=O)ccc1O | HS 578T breast | µM | 85.6 |
| CC(C)C[C@H](NC(=O)CCc1cccc2ccccc12)B(O)O | HS 578T breast | µM | 7.4 |
| COc1ccc2c(c1)c(-c1ccc(-c3cn(C)c4ccc(OC)cc34)o1)cn2C | HS 578T breast | µM | 20.1 |

Return reported TGI values for all items listed beneath this line.
1. CCN(CCCl)c1cc(CN(C)C)cc(NC(=O)c2ccc(C(=O)Nc3ccccc3)cc2)c1
2. O=C1CSC(c2cccc(Oc3ccccc3)c2)N1c1cccc(Cl)c1Cl (stereo unspecified)
3. COc1cc2c3c(c1OC)C(=O)C(=O)C1=C3N(CCC1)CC2
4. N#Cc1ccc(NC(=O)Nc2nc3ccc(OC(F)(F)F)cc3s2)cc1
5. CN[C@H]1CC[C@]23C[C@]24CC[C@]2(C)[C@@H]([C@H](C)N(C)C)CC[C@@]2(C)[C@@H]4CC[C@H]3C1(C)C
6. CCSc1nc(C)nc2c1sc1nc3ccccc3n12
7. C=CC(C)(C)n1cc(C2=C(O)C(=O)C(c3c(CC=C(C)C)[nH]c4ccccc34)=C(O)C2=O)c2ccccc21
8. COc1cc2c3cc1Oc1c(OC)c(OC)cc4c1C(Cc1ccc(O)c(c1)-c1cc(ccc1OC)CC3N(C)CC2)N(C)CC4 (stereo unspecified)

result:
1. 0.583
2. 84.7
3. 47.6
4. 7.65
5. 48
6. 92.9
7. 25
8. 59.1

Return reported TGI values for all items listed beneath this line.
1. COC(=O)CCCNC(=O)C(=O)c1c(O)c(O)c(C(C)C)c2cc(C)c(-c3c(C)cc4c(C(C)C)c(O)c(O)c(C(=O)C(=O)NCCCC(=O)OC)c4c3O)c(O)c12
2. COC(=O)C1(Cc2ccc(C)cc2)Cc2c(C)cccc2C1=O (stereo unspecified)

result:
[11.6, 46.9]

---

- Test system: CAKI-1 renal
- TEST PROTOCOL: NCI tumour cell line growth inhibition, 48 h
MEASURED ATTRIBUTE: TGI

| COMPOUND | MEASURED ON | TGI |
| --- | --- | --- |
| CCCCCCCCCCCCC(NC(C)=O)(C(=O)OCC)C(=O)OCC | CAKI-1 renal | 27.4 µM |

Return reported TGI values for all items listed beneath this line.
1. COc1ccc2c(c1)c(-c1ccc(-c3cn(C)c4ccc(OC)cc34)o1)cn2C
2. C/C(=N\Nc1nc2ccccc2o1)c1cc2ccccc2cn1
3. C=CCOC1OC(CS(=O)(=O)O)C(OC(C)=O)C(OC(C)=O)C1OC(C)=O (stereo not drawn)
4. CC1(C)CN=C(Nc2ccc(F)c(Cl)c2)S1
5. CCOC(=O)C1=C(C)N(C2OC(COC(C)=O)C(OC(C)=O)C(OC(C)=O)C2OC(C)=O)C(=O)NC1c1ccccc1 (stereo not drawn)
6. C[C@H](CO)C1=CC(C#C[Si](C)(C)C)N(C(=O)Oc2ccccc2)c2ccccc21 (stereo partly drawn)
7. O=S(=O)(NCCNc1cc(-c2cn(-c3ccccc3)nc2-c2cccc(O)c2)ccn1)c1ccc(Br)cc1

result:
> 100 µM
11.1 µM
> 100 µM
> 100 µM
> 100 µM
28.7 µM
20.4 µM

Return reported TGI values for all items listed beneath this line.
1. O=C1NC(N2CCCCC2)=N/C1=C\c1ccccc1
2. COC1C(OC(C)=O)CC(=O)OC(C)C/C=C/C=C\C(O)C(C)CC(CC=O)C1OC1OC(C)C(OC2CC(C)(O)C(OC(=O)CC(C)C)C(C)O2)C(N(C)C)C1O (stereo not drawn)
3. O=C(NNC(=O)c1c(Cl)c(Cl)c(Cl)c(Cl)c1-c1nc2ccccc2[nH]1)c1ccc(Cl)cc1
4. OC[C@@H](O)[C@H](O)[C@@H](O)/C=N/Nc1ccc(Cl)nn1

result:
1: > 100 µM; 2: > 100 µM; 3: > 100 µM; 4: > 100 µM

Return reported TGI values for all items listed beneath this line.
1. O=C1CSC(c2cccc(Oc3ccccc3)c2)N1c1cccc(Cl)c1Cl (stereo not drawn)
2. N[C@@H](Cc1ccc2oc3cc(=O)c4ccccc4c-3nc2c1)C(=O)O
3. COc1ccc(-c2cc(-c3ccc(Cl)cc3)nc(SCCCCCCC(=O)NO)n2)cc1
4. CC(C)Cc1ccc(C(C)/C=C2\CCC(CN3CCCCC3)C2=O)cc1 (stereo not drawn)

result:
1: > 100 µM; 2: > 100 µM; 3: 7.47 µM; 4: 20.4 µM

Return reported TGI values for all items listed beneath this line.
1. C[C@H]1[C@H](C)CC[C@]2(C(=O)OC3OC(CO)C(O)C(O)C3O)CC[C@]3(C)C(=CC[C@@H]4[C@@]5(C)C[C@@H](O)[C@@H]6OC(=O)c7cc(O)c(O)c(O)c7-c7c(cc(O)c(O)c7O)C(=O)OC[C@]6(CO)[C@@H]5CC[C@]43C)[C@H]12 (stereo partly drawn)
2. C[C@]12CC/C(=N\O)C=C1CC[C@@H]1[C@@H]2CC[C@]2(C)C(=N/O)/C(=C/c3ccncc3)C[C@@H]12

result:
["> 53.3 µM", "> 100 µM"]
